B1: EPB41L3 (parent)
chain: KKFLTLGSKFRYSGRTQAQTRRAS

variants of: B1; assay: protein stability index of a GFP-peptide fusion (GPS, HEK-293T) (PSI 1-6); higher = more stable; conditions: c terminus: a fixed tail appended;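 note: lentivirally expressed fusions sorted by FACS into six bins by GFP to DsRed ratio, PSI derived from sequencing read proportions per bin multiplied by bin number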
measurement.label: protein stability index
# answer = number (no unit)

Recorded results for 5 variants are shown here.
Q17S ... 2.01
R22T ... 3.24
K2A ... 2.14
R11S ... 3.4
S13I ... 2.34

Entry F3Y , protein stability index reported as 3.58

Summary for this variant, L4D : protein stability index is 3.63

For reference, reported protein stability index for Y12K stands at 3.01

The recorded protein stability index for entry T5F equals 1.84

Quick note, protein stability index for T5W landed at 1.56

Entry K2E , protein stability index reported as 2.47
